System: SK-OV-3 ovarian
assay_explanation: NCI tumour cell line growth inhibition, 48 h
value_kind: TGI

                                   compound    target_system  value_kind  reported_value
0  CC(OC(C)(C)C)[C@H](NC(=O)OC(C)(C)C)C(=O)O (stereo partly drawn)  SK-OV-3 ovarian         TGI        > 100 µM
1  c1ccc2[nH]c(-c3ccc(NN=Nc4ccncc4)cc3)nc2c1  SK-OV-3 ovarian         TGI        > 100 µM
2  CC(C)(C)c1nn(-c2ccccc2)c2c1C(=O)CSC(c1ccccc1Cl)N2 (stereo not drawn)  SK-OV-3 ovarian         TGI         6.17 µM
3  COc1ccc(/C=C\c2cc(OC)c(OC)c(OC)c2)cc1OC(=O)c1cccc(Cn2cc(CCOC(=O)[C@H](N)Cc3cn(C)c4ccccc34)nn2)c1  SK-OV-3 ovarian         TGI        > 100 µM
4             N#C/C(=C/c1ccc[nH]1)P(=O)(O)O  SK-OV-3 ovarian         TGI        > 100 µM
5      CCCCCCCCCCCCCC(=O)CC(=O)c1c(O)cccc1O  SK-OV-3 ovarian         TGI        > 100 µM
6  O=[N+]([O-])c1nccn1CC(O)CN1CC1 (stereo not drawn)  SK-OV-3 ovarian         TGI         94.7 µM
7  CC(C)(O)CS(=O)(=O)Nc1ccc2c(c1)CCN(C(=O)COc1cccnc1)C2  SK-OV-3 ovarian         TGI        > 100 µM
